Values were extracted from the NIST ThermoML archive (doi:10.1021/je901067c).

# TEST PARAMETERS: 318.15 K; 101 kPa; Liquid
Kindly supply the reported mass density values for the records listed here.
Give bare numbers, in kg/m3.

Reference set (3 entries):
>>> numeric_value("CCCC(C)O (centres undefined)")
788.37
>>> numeric_value("CCC(O)CC")
797.66
>>> numeric_value("CCC(C)=O")
778.52

API: the following record is the query input.
Tell me its mass density given CCCCCO as the entry.
795.9

* * *

# TEST PARAMETERS: 308.15 K; 101 kPa; Liquid
± gives the expanded uncertainty stated by the source.
Kindly supply the reported mass density values for the records listed here.

>>> result("CCCC(C)O (centres undefined)")
"797 ± 0.57 kg/m3"

Give measured mass density for every item shown.
1. CCC(C)=O
2. CCCCCO
3. CCC(O)CC

789.21 ± 0.58 kg/m3
803.45 ± 0.56 kg/m3
806.91 ± 0.56 kg/m3

* * *

# EXPERIMENT DESCRIPTION: refractive index (Na D-line) (dimensionless)
# TEST PARAMETERS: 308.15 K; 101.33 kPa; Liquid; Standard Abbe refractometry
MEASURED PARAMETER: refractive index
One number for each entry.

>>> numeric_value("CCC(C)=O")
1.37
>>> numeric_value("CCC(O)CC")
1.4029

Give measured refractive index for every item shown.
1. CCCC(C)O (centres undefined)
2. CCCCCO

1.399
1.4031

* * *

# EXPERIMENT DESCRIPTION: refractive index (Na D-line) (dimensionless)
# TEST PARAMETERS: 298.15 K; 101.33 kPa; Liquid; Standard Abbe refractometry
MEASURED PARAMETER: refractive index
Answers are plain numbers.

>>> numeric_value("CCC(O)CC [3-pentanol]")
1.4047
>>> numeric_value("CCC(C)=O [butanone]")
1.375
>>> numeric_value("CCCC(C)O (centres undefined) [pentan-2-ol]")
1.4032

API: the following record is the query input.
Tell me its refractive index given CCCCCO [pentan-1-ol] as the entry.
1.4068

* * *

# TEST PARAMETERS: 308.15 K; 101 kPa; Liquid; Capillary tube (Ostwald / Ubbelohde) method
Kindly supply the reported viscosity values for the records listed here.
Answers are plain numbers, in mPa·s.

Reference set (3 entries):
>>> numeric_value("CCC(C)=O [butanone]")
0.361
>>> numeric_value("CCCCCO [pentan-1-ol]")
2.658
>>> numeric_value("CCC(O)CC [3-pentanol]")
2.864

Tell me its viscosity given CCCC(C)O (centres undefined) [pentan-2-ol] as the entry.
2.361

* * *

# TEST PARAMETERS: 318.15 K; 101 kPa; Liquid; Capillary tube (Ostwald / Ubbelohde) method
Kindly supply the reported viscosity values for the records listed here.
Numbers only, in mPa·s.

Reference set (3 entries):
>>> numeric_value("CCCCCO")
2.288
>>> numeric_value("CCC(C)=O")
0.334
>>> numeric_value("CCCC(C)O (centres undefined)")
1.772

API: the following record is the query input.
Tell me its viscosity given CCC(O)CC as the entry.
1.902

* * *

# TEST PARAMETERS: 298.15 K; 101 kPa; Liquid
Kindly supply the reported mass density values for the records listed here.
Numbers only, in kg/m3.

>>> numeric_value("CCC(C)=O")
799.76
>>> numeric_value("CCCCCO")
810.85
>>> numeric_value("CCC(O)CC")
815.79

API: the following record is the query input.
Tell me its mass density given CCCC(C)O (centres undefined) as the entry.
805.3

* * *

# EXPERIMENT DESCRIPTION: refractive index (Na D-line) (dimensionless)
# TEST PARAMETERS: 318.15 K; 101.33 kPa; Liquid; Standard Abbe refractometry
Numbers after ± are expanded uncertainties.
Kindly supply the reported refractive index values for the records listed here.

Reference set (3 entries):
>>> result("CCCC(C)O (centres undefined) [pentan-2-ol]")
"1.395 ± 0.0009"
>>> result("CCC(C)=O [butanone]")
"1.3657 ± 0.0009"
>>> result("CCC(O)CC [3-pentanol]")
"1.3981 ± 0.0009"

API: the following record is the query input.
Tell me its refractive index given CCCCCO [pentan-1-ol] as the entry.
1.3996 ± 0.0009

* * *

Kindly supply the reported viscosity values for the records listed here.
# TEST PARAMETERS: 298.15 K; 101 kPa; Liquid; Capillary tube (Ostwald / Ubbelohde) method
Answers are plain numbers, in mPa·s.

Reference set (3 entries):
>>> numeric_value("CCCCCO")
3.54
>>> numeric_value("CCC(C)=O")
0.391
>>> numeric_value("CCC(O)CC")
4.625

API: the following record is the query input.
Tell me its viscosity given CCCC(C)O (centres undefined) as the entry.
3.478
